# ASSAY: Cytotoxicity against HEK293 cells expressing wild type ABCG2-482-R2 assessed as inhibition of cell viability at 5 to 25 uM incubated for 2 hrs by MTT assay relative to control
# Assay type: ADME, cell-based
# REPORTED CONDITIONS: human, read-out: INH
# cytotoxicity at 2 h, up to 25 µM listing for each entry below

[
  {
    "SMILES STRUCTURE": "COc1ccc(C(=O)c2c[nH]c3ccc(OC)cc23)cc1",
    "cytotoxicity at 2 h, up to 25 µM": "< 20%"
  }
]

Moving on to another molecule below.
Query string: Please list cytotoxicity at 2 h, up to 25 µM recorded for the molecule `COc1ccc(C(=O)c2ccc3[nH]cc(C(=O)c4ccc(OC)cc4)c3c2OC)cc1`
Result string: < 20%
